- system: Alkaline phosphatase, germ cell type (Homo sapiens)
- assay-details: effect of analogs on PLAP-like activity, SAR follow-up, selectivity assay for mouse IAP activator project, biochemical, human placental-like ALPPL2 isozyme (AID 493139)
- test-parameters: purified human placental-like alkaline phosphatase, enzymatic activity
Activity calls are given as the source filed them. The rule behind the calls is not given here.
Allowed answers: yes (1) (active), no (0) (inactive)

Q) Outcome logged for O=C(CN1C(=O)/C(=C/c2ccco2)SC1=S)N[C@@H]1CSC[C@@H]1O in this assay:
A) no (0)

Q) Outcome logged for N#Cc1c(SCC(=O)Nc2nc3ccccc3s2)sc2c(O)cc(=O)[nH]c12 in this assay:
A) no (0)

Q) Outcome logged for O=C(NN=Cc1cccnc1)c1cc(O)c(O)c(O)c1 in this assay:
A) no (0)

Q) Outcome logged for CCCSc1nnc(NC(=O)CSc2sc3c(O)cc(=O)[nH]c3c2C#N)s1 in this assay:
A) no (0)

Q) Outcome logged for CCN(C(=O)CN1C(=O)/C(=C\c2ccco2)SC1=S)C1CCS(=O)(=O)C1 (configuration not stated) in this assay:
A) no (0)

Q) Outcome logged for COC(=O)NNC(=O)c1cc(OC)c(OC)c(OC)c1 in this assay:
A) no (0)

Q) Outcome logged for N#Cc1c(SCC(=O)Nc2ccccc2C(F)(F)F)sc2c(O)cc(=O)[nH]c12 in this assay:
A) no (0)

Q) Outcome logged for N#Cc1c(SCC(=O)Nc2ccc(Cl)cc2Cl)sc2c(O)cc(=O)[nH]c12 in this assay:
A) no (0)

Q) Outcome logged for N#Cc1c(SCC(=O)Nc2nc3ccc(Br)cc3s2)sc2c(O)cc(=O)[nH]c12 in this assay:
A) no (0)

Q) Outcome logged for COc1cc(Cl)c(C)cc1NC(=O)CSc1sc2c(O)cc(=O)[nH]c2c1C#N in this assay:
A) no (0)

Q) Outcome logged for COc1ccc(NC(=O)C(CC(C)C)NS(=O)(=O)c2ccc3[nH]c(=O)oc3c2)cc1 (configuration not stated) in this assay:
A) no (0)

Q) Outcome logged for CCOc1ccc2nc(NC(=O)CN(C)S(=O)(=O)c3ccc4[nH]c(=O)oc4c3)sc2c1 in this assay:
A) no (0)

Q) Outcome logged for N#Cc1c(SCC(=O)NCc2ccc3c(c2)OCO3)sc2c(O)cc(=O)[nH]c12 in this assay:
A) no (0)

Q) Outcome logged for CN(C(=O)CN1C(=O)/C(=C\c2ccco2)SC1=S)C1CCS(=O)(=O)C1 (configuration not stated) in this assay:
A) no (0)

Q) Outcome logged for Cc1ccc(/C=C2\SC(=S)N(C3CCS(=O)(=O)C3)C2=O)o1 (configuration not stated) in this assay:
A) no (0)

Q) Outcome logged for O=C(CCN1C(=O)/C(=C/c2ccco2)SC1=S)Nc1ccc(O)cc1C(=O)O in this assay:
A) no (0)

Q) Outcome logged for Cc1ccc(NC(=O)CSc2sc3c(O)cc(=O)[nH]c3c2C#N)c(F)c1 in this assay:
A) no (0)

Q) Outcome logged for COC(=O)c1ccc(C)c(NC(=O)CSc2sc3c(O)cc(=O)[nH]c3c2C#N)c1 in this assay:
A) no (0)

Q) Outcome logged for Cc1ccc(NC(=O)CCNS(=O)(=O)c2ccc3[nH]c(=O)oc3c2)cc1 in this assay:
A) no (0)

Q) Outcome logged for COc1ccc(NC(=O)CSc2sc3c(O)cc(=O)[nH]c3c2C#N)c(OC)c1 in this assay:
A) no (0)

Q) Outcome logged for CC(C(=O)NCCc1ccc(O)cc1)N1C(=O)/C(=C/c2ccco2)SC1=S (configuration not stated) in this assay:
A) no (0)

Q) Outcome logged for COc1ccc(NC(=O)CCNS(=O)(=O)c2ccc3[nH]c(=O)oc3c2)cc1Cl in this assay:
A) no (0)

Q) Outcome logged for CN1CCC(=NNC(=O)c2cc(O)c(O)c(O)c2)CC1 in this assay:
A) no (0)

Q) Outcome logged for CCc1ccc(NC(=O)CN(C)S(=O)(=O)c2ccc3[nH]c(=O)oc3c2)cc1 in this assay:
A) no (0)

Q) Outcome logged for COc1cc(C(=O)NNC(=O)c2n[nH]c3ccccc23)cc(OC)c1OC in this assay:
A) yes (1)

Q) Outcome logged for CCSc1nnc(NC(=O)CSc2sc3c(O)cc(=O)[nH]c3c2C#N)s1 in this assay:
A) no (0)

Q) Outcome logged for O=C(CN1C(=O)/C(=C/c2ccco2)SC1=S)Nc1ccc(C(=O)O)cc1 in this assay:
A) no (0)

Q) Outcome logged for O=C(CCNS(=O)(=O)c1ccc2[nH]c(=O)oc2c1)Nc1ccccc1 in this assay:
A) no (0)

Q) Outcome logged for O=C(N/N=C/c1ccsc1)c1cc(O)c(O)c(O)c1 in this assay:
A) no (0)

Q) Outcome logged for O=C(CN1C(=O)/C(=C/c2ccco2)SC1=S)Nc1ccc2nccnc2c1 in this assay:
A) no (0)

Q) Outcome logged for O=C(CN1C(=O)/C(=C/c2ccco2)SC1=S)Nc1ccc(O)c(C(=O)O)c1 in this assay:
A) yes (1)

Q) Outcome logged for O=C(CCN1C(=O)/C(=C\c2ccco2)SC1=S)Nc1ccc(C(=O)O)c(O)c1 in this assay:
A) no (0)
